# tested-target: Human D1 Receptor (Homo sapiens (Human))
# Sequence (P21728 whole entry): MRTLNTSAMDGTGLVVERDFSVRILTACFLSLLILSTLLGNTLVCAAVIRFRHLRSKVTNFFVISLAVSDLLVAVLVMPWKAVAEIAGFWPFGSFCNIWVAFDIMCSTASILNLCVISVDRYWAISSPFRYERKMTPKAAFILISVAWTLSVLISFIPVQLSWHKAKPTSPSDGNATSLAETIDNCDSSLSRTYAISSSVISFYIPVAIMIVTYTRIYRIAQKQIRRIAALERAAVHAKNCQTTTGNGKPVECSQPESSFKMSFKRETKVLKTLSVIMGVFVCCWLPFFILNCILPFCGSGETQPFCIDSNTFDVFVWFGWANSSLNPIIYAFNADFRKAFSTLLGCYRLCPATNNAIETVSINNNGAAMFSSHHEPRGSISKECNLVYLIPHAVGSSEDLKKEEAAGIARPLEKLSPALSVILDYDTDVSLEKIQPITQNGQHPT
# test-name: Human D1 receptor binding assay ([3H]-SCH23390 competition)
# applied-conditions: over-expressing LTK human cell lines; 0.5 nM [3H]-SCH23390; 30 min at 37 °C; footnote a: geometric mean of ≥5 determinations; footnote b: single determination; read-out: Human D1 Receptor Binding, Ki (nM); Geometric mean of 2-4 determinations (unless otherwise indicated)

{"smiles-code": "Cc1n[nH]c(=O)c(C)c1-c1ccc(Oc2nccc3cccnc23)cc1", "unit-of-measurement": "nM", "Ki": 205}
{"smiles-code": "Cc1cc(Oc2nccc3nccnc23)ccc1-c1c(C)n[nH]c(=O)c1C", "unit-of-measurement": "nM", "Ki": 306}
{"smiles-code": "Cc1cc(Oc2nccc3cccc(C#N)c23)ccc1-c1c(C)n[nH]c(=O)c1C", "unit-of-measurement": "nM", "Ki": 261}
{"smiles-code": "Cc1cc(Oc2nccc3cccnc23)ccc1-c1c(C)c(=O)[nH]c(=O)n1C", "unit-of-measurement": "nM", "Ki": 28.5}
{"smiles-code": "Cc1cc(Oc2nccc3ncccc23)ccc1-c1c(C)n[nH]c(=O)c1C", "unit-of-measurement": "nM", "Ki": 124}
{"smiles-code": "Cc1cc(Oc2nccc3ccccc23)ccc1-c1c(C)c(=O)[nH]c(=O)n1C", "unit-of-measurement": "nM", "Ki": 1.9}
